# ASSAYED_TARGET: human mGluR5 (Homo sapiens, UniProt P41594)
# Sequence (P41594 21-1180 isoform P41594-2 limits assumed): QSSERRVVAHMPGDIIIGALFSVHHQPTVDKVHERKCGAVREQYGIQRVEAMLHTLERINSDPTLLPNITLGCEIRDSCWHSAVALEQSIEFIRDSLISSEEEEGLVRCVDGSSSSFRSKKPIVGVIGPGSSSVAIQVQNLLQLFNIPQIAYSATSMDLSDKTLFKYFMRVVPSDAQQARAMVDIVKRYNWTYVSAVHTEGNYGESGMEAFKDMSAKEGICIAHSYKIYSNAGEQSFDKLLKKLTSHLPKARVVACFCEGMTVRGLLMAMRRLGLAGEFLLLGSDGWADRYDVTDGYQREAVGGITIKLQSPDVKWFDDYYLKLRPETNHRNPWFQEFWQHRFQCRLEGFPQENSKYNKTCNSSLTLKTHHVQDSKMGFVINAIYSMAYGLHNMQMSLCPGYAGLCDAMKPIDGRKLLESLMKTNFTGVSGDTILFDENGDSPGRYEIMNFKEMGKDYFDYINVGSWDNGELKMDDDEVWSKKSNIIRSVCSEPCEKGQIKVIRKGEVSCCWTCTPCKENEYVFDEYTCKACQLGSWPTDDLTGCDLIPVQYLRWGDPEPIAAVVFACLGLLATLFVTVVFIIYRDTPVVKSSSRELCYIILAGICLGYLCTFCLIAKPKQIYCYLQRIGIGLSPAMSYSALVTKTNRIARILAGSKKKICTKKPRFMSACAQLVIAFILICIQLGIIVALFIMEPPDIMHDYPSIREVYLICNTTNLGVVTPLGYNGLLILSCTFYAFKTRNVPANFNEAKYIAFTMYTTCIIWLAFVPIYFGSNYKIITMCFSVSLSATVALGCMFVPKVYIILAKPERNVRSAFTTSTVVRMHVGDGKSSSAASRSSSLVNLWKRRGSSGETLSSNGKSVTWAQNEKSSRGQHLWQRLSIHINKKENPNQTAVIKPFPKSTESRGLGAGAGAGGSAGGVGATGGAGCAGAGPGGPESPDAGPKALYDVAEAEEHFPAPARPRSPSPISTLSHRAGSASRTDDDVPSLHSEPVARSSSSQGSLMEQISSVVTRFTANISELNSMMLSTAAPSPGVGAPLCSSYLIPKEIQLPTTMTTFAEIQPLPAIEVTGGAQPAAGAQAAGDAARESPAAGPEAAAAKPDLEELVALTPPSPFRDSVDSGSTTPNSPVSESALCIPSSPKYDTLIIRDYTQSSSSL
# PROCEDURE_DETAILS: Cell-based functional Ca2+ mobilization assay (FDSS), potentiation of glutamate EC20 response, HEK293A cells transfected with human mGluR5a (H10H or H12H cell line)
# CONDITION_INFO: HEK293-A, H10H cell line expressing recombinant human mGluR5; in presence of glutamate EC20; % of maximal glutamate response; ** = compound is an antagonist
// NB: equality with 50% counts as false; only Emax strictly below is true

COMPOUND_STRUCTURE | CAT
O=C(COCc1ccccc1)N1CCn2nc(OCc3ccccc3)cc2C1 | true
COc1ccccc1COc1cc2n(n1)CCN(C(=O)c1ccc(F)cc1)C2 | true
O=C(c1ccc(F)cc1)N1CCn2nc(OCc3ccnc(C(F)(F)F)c3)cc2C1 | true
O=C(c1ccc(Cl)cc1)N1CCn2nc(OCc3ccccc3)cc2C1 | true
O=C(c1ccccn1)N1CCn2nc(OCc3ccccc3)cc2C1 | true
O=C(c1ccc(F)cc1)N1CCn2nc(OCc3ccncc3)cc2C1 | false
CCOCC(=O)N1CCn2nc(OCc3ccccc3)cc2C1 | true
O=C(c1ccc(F)c(F)c1)N1CCn2nc(OCc3ccccc3)cc2C1 | false
O=C(CCC(F)(F)F)N1CCn2nc(OCc3ccccc3)cc2C1 | true
